Below, each entry is listed alongside its reported melting point.

Please review the following examples before continuing.
>>> print(df.to_string())
                                   compound  recorded_measurement
0  Cc1c(C(=O)C2=C(O)CCCC2=O)ccc(Cl)c1S(C)(=O)=O         137 to 140 °C
1  COc1ccc(C(=O)C2=C(O)CC(C)(C)CC2=O)c(C)c1S(C)(=O)=O         163 to 165 °C
2  Cc1c(C(=O)C2=C(n3cccn3)CCCC2=O)ccc(S(C)(=O)=O)c1S(C)(=O)=O         275 to 277 °C
3  COc1ccc(C(=O)C2=C(O)CCCC2=O)c(C)c1S(C)(=O)=O         121 to 129 °C

[Q] What value of measured melting point is listed for COc1ccc(C(=O)C2=C(O)CC(C)CC2=O)c(C)c1S(C)(=O)=O (stereo not drawn) ?
[A] 106 to 112 °C

[Q] What value of measured melting point is listed for Cc1c(C(=O)C2=C(O)CCCC2=O)ccc(OC(F)F)c1S(C)(=O)=O ?
[A] 64 to 69 °C

[Q] What value of measured melting point is listed for Cc1c(C(=O)C2=C(O)CCCC2=O)ccc(S(C)(=O)=O)c1S(C)(=O)=O ?
[A] 301 to 302 °C

[Q] What value of measured melting point is listed for Cc1c(C(=O)C2=C(n3cccn3)CC(C)CC2=O)ccc(S(C)(=O)=O)c1S(C)(=O)=O (stereo not drawn) ?
[A] 278 to 283 °C

[Q] What value of measured melting point is listed for Cc1c(C(=O)C2=C(O)CC(C)CC2=O)ccc(S(C)(=O)=O)c1S(C)(=O)=O (stereo not drawn) ?
[A] 235 to 239 °C
